System: SNB-75
Test description: NCI tumour cell line growth inhibition, 48 h
Active and inactive are the calls of the source. Rule as the data show it: active = GI50 up to about 1.1 µM and inactive = higher.
We begin with a simple list: items and their reported GI50.
Measure name: GI50

>>> assay_result("COC(=O)c1sc(C(=O)OC)c2c1CSC2")
"22.5 µM (inactive)"
>>> assay_result("Clc1cc2ncn(C3CCCCO3)c2cc1Cl (stereo unspecified)")
"11.7 µM (inactive)"
>>> assay_result("Cc1cc2c(=O)c3ccccc3[nH]c2c(C(N)=O)c1C")
"> 100 µM (inactive)"
>>> assay_result("CC#CC1C(OC(=O)c2ccccc2)CCCC1(CI)N=[N+]=[N-] (stereo unspecified)")
"> 100 µM (inactive)"
>>> assay_result("CCOC(=O)Cn1c(=O)c2nc(SC)sc2n(-c2ccccc2)c1=O")
"> 100 µM (inactive)"
>>> assay_result("CCOc1ccc(/C=N/[N+](C)(C)C)cc1OCC")
"> 10 µM (inactive)"

Taken from ChEMBL document CHEMBL1201862.
